Assay: Solubility of oxcarbazepine in the presence of excipients
Format: physicochemical
Conditions: phosphate buffer with 5% w/w sodium lauryl sulfate (SLS), aqueous with cosolvent or surfactant or cyclodextrin, thermodynamic from solid, Sodium Lauryl Sulfate (SLS) 5% w/w in phosphate buffer; read-out: Solubility
readout_kind: solubility (µg/mL)
# value in µg/mL; strip the unit string

Note to self: solubility recorded for NC(=O)N1c2ccccc2CC(=O)c2ccccc21 [Oxcarbazepine] was 4110

====

Experiment: Solubility of oxcarbazepine in the presence of excipients
Type: physicochemical
Settings: aqueous with cosolvent or surfactant or cyclodextrin, thermodynamic from solid, SLS/Stearic Acid/PEG400 5, 1, 1% w/w in phosphate buffer; read-out: Solubility
readout_kind: solubility (µg/mL)
# value in µg/mL; strip the unit string

Note to self: solubility recorded for NC(=O)N1c2ccccc2CC(=O)c2ccccc21 [Oxcarbazepine] was 3280
